biological target: Arylsulfatase A (Homo sapiens); assay: qHTS screen for enhancers of Arylsulfatase A (ASA1): LOPAC Validation Assay (AID 720538); conditions: ASA enzyme activity, LOPAC qHTS enhancer assay; series mostly up to 57.5 µM
Records with an inconclusive call do not appear. Calls of active or inactive are those of the source. Calls come from the whole dose curve; as a rule, active = well fitted activation curve with a large enough effect; inconclusive = small, poorly fitted or top-dose-only effect; inactive = no such curve, though single readings can be large or run the other way.
Please answer using one outcome listed in yes for active, no for inactive

Request: Please state the recorded outcome for this compound: CCCCCC(O)c1cccc(OCc2ccc3ccccc3n2)c1 (stereo not given)
Response: no

Request: Queued: O=C(c1cc(O)c(O)c([N+](=O)[O-])c1)c1ccccc1F
Response: yes

Request: Queued: O=c1[nH]c2cc(Cl)c(Cl)cc2[nH]c1=O
Response: no

Request: Queued: COc1cc2c(CCNC(C)=O)c[nH]c2cc1Cl
Response: no

Request: Queued: CC(COc1ccc(/C=C/c2ccccc2)cc1)[N+](C)(C)C (stereo not given)
Response: no

----------
target: Glutathione peroxidase 1 (Homo sapiens); assay: Primary qHTS Assay for Inhibitors of Recombinant Selenoprotein Glutathione Peroxidase 1 (GPX1) (AID 1845191); conditions: recombinant GPX1, GR-coupled NADPH fluorescence, 15 min; series mostly up to 48.8 µM; note: nearly all actives have a fitted effect of over 65% in size
Records with an inconclusive call do not appear. The source made the active and inactive calls. Calls follow the shape of the dose curve; as a rule, active = well fitted inhibition curve with a large enough effect; inconclusive = small, poorly fitted or top-dose-only effect; inactive = flat fitted curve, though single readings scatter.
Please answer using one outcome listed in 1 (yes) for active, 0 (no) for inactive

Request: Please state the recorded outcome for this compound: CO/N=C(\C(=O)N[C@@H]1C(=O)N2C(C(=O)O)=C(COC(C)=O)CS[C@H]12)c1csc(N)n1
Response: 1 (yes)

Request: Queued: CC(C)NC[C@@H](O)c1ccc(O)c(O)c1
Response: 0 (no)

Request: Queued: COc1cccc(OC)c1OCCNCC1COc2ccccc2O1 (stereo unspecified)
Response: 0 (no)

Request: Queued: OC[C@H]1O[C@@H](n2cnc3c(NC4CCCC4)ncnc32)[C@H](O)[C@@H]1O
Response: 0 (no)

Request: Queued: Cn1ncc(S(=O)(=O)Cc2ccccc2)c(Br)c1=O
Response: 0 (no)

Request: Queued: Nc1ncnc2c1ncn2[C@@H]1O[C@H](COP(=O)(O)CP(=O)(O)OP(=O)(O)O)[C@@H](O)[C@H]1O
Response: 0 (no)

Request: Queued: Brc1c(Br)c(Br)c2n[nH]nc2c1Br
Response: 0 (no)

Request: Queued: O=P(O)(O)C(Cl)(Cl)P(=O)(O)O
Response: 0 (no)

Request: Queued: O=C(O)c1cc(=O)c2c(Cl)cc(Cl)cc2[nH]1
Response: 0 (no)

Request: Queued: Oc1cc(O)cc(/C=C/c2ccc(O)c(O)c2)c1
Response: 0 (no)

Request: Queued: COc1cc2c(CCNC(C)=O)c[nH]c2cc1Cl
Response: 0 (no)

----------
assay: P-glycoprotein substrates identified in KB-8-5-11 adenocarcinoma cell line, qHTS therapeutic library screen (AID 1346987); conditions: KB-8-5-11 (P-gp overexpressing) viability, CellTiter-Glo, 72 h; series mostly up to 44.5 µM; note: nearly all actives have a fitted effect of over 65% in size
Results filed as inconclusive are left out. Active and inactive are the calls of the source. The call rests on the fitted dose curve; in most records, active means well fitted inhibition curve with a large enough effect; inconclusive means small, poorly fitted or top-dose-only effect; inactive means flat fitted curve, though single readings scatter.
Please answer using one outcome listed in active, inactive

Request: Please state the recorded outcome for this compound: C[N+](C)(C)CCOP(=O)(O)OP(=O)([O-])OC[C@H]1O[C@@H](n2ccc(N)nc2=O)[C@H](O)[C@@H]1O
Response: inactive

Request: Queued: CO[C@@]1(NC(=O)Cc2cccs2)C(=O)N2C(C(=O)O)=C(COC(N)=O)CS[C@@H]21
Response: inactive

Request: Queued: Cc1ccc(C(=O)c2ccc(CC(=O)O)n2C)cc1
Response: inactive

Request: Queued: CC(=O)O[C@H]1C[C@@]2(C)[C@@H](C[C@@H](O)[C@H]3[C@@]4(C)CC[C@@H](O)[C@@H](C)[C@@H]4CC[C@@]32C)/C1=C(\CCC=C(C)C)C(=O)O
Response: inactive

Request: Queued: CN(C)c1ccc(N=NS(=O)(=O)O)cc1
Response: inactive

Request: Queued: N#C/C(=C\c1ccc(O)c(O)c1)C(=O)NCCCc1ccccc1
Response: inactive

Request: Queued: CN1CC(=O)N/C1=N/C(=O)Nc1cccc(Cl)c1
Response: inactive

Request: Queued: C[S+](CC[C@H](N)C(=O)O)C[C@H]1O[C@@H](n2cnc3c(N)ncnc32)[C@H](O)[C@@H]1O (stereo not given in full)
Response: inactive

Request: Queued: O=C(CS)Nc1ccccc1
Response: inactive

Request: Queued: CC(=O)SCC(CC(=O)c1ccc(C)cc1)C(=O)O (stereo not given)
Response: inactive

Request: Queued: O=C(O)COc1ccc(C(=O)c2cccs2)c(Cl)c1Cl
Response: inactive

Request: Queued: CCCCCCCCCCCCCCCC(=O)OC(C)C
Response: inactive

Request: Queued: CCC1C(=O)OCC1Cc1cncn1C (stereo not given)
Response: inactive

Request: Queued: COC(=O)[C@H]1[C@H]2C[C@@H]3c4[nH]c5cc(OC)ccc5c4CCN3C[C@H]2C[C@@H](OC(=O)/C=C/c2cc(OC)c(OC)c(OC)c2)[C@@H]1OC
Response: inactive

Request: Queued: CN1[C@@H]2CC[C@H]1CC(OC(=O)C(CO)c1ccccc1)C2 (stereo not given in full)
Response: inactive

Request: Queued: C=CC(N)CCC(=O)O (stereo not given)
Response: inactive

Request: Queued: CC(C)Cc1ccc([C@H](C)C(=O)O)cc1
Response: inactive

Request: Queued: [O-][n+]1ccccc1SSc1cccc[n+]1[O-]
Response: active

Request: Queued: CC1(C)S[C@@H]2[C@H](NC(=O)[C@H](NC(=O)N3CCN(S(C)(=O)=O)C3=O)c3ccccc3)C(=O)N2[C@H]1C(=O)O
Response: inactive

Request: Queued: CN1[C@@H]2CC[C@H]1CC(OC(c1ccccc1)c1ccccc1)C2 (stereo not given in full)
Response: inactive

Request: Queued: O=C(Nc1ccc2c(c1)CCN(Cc1ncn[nH]1)C2)c1ccccc1-c1ccc(C(F)(F)F)cc1
Response: inactive

Request: Queued: CC[C@H]1OC(=O)[C@H](C)C(=O)[C@H](C)[C@@H](O[C@@H]2O[C@H](C)C[C@H](N(C)C)[C@H]2O)[C@](C)(OC)C[C@@H](C)C(=O)[C@H](C)[C@H]2N(CCCCn3cnc(-c4cccnc4)c3)C(=O)O[C@]12C
Response: inactive

Request: Queued: CC1(C)[C@@H](O)CC[C@]2(C)[C@H]3C(=O)C=C4[C@@H]5C[C@@](C)(C(=O)O)CC[C@]5(C)CC[C@@]4(C)[C@]3(C)CC[C@@H]12
Response: inactive

Request: Queued: Cc1nc2ccccc2n1Cc1ccc(Cl)cc1
Response: active

Request: Queued: COc1cc(NC(C)CCCN)c2ncccc2c1 (stereo not given)
Response: inactive

Request: Queued: CCNc1nc2c(ncn2[C@H]2C[C@H](O)[C@@H](CO)O2)c(=O)[nH]1
Response: inactive

Request: Queued: NCCO
Response: inactive

Request: Queued: N=C(N)N
Response: inactive

Request: Queued: Cc1onc(-c2c(F)cccc2Cl)c1C(=O)N[C@@H]1C(=O)N2[C@@H]1SC(C)(C)[C@@H]2C(=O)O
Response: inactive

Request: Queued: CN(C)[C@@H]1C(=O)C(C(=O)NCN2CCCC2)=C(O)[C@@]2(O)C(=O)C3=C(O)c4c(O)cccc4[C@@](C)(O)C3C[C@@H]12 (stereo not given in full)
Response: inactive

Request: Queued: CCN1/C(=C/C(C)=O)Sc2ccc(OC)cc21
Response: inactive

Request: Queued: C[C@H](O)[C@H](O)[C@H]1CNc2nc(N)[nH]c(=O)c2N1
Response: inactive

Request: Queued: Cc1c(N)c(=O)n(-c2ccccc2)n1C
Response: inactive

Request: Queued: CCOc1ccc2nc(S(N)(=O)=O)sc2c1
Response: inactive

Request: Queued: Nc1ccc(C(=O)O)c(O)c1
Response: inactive

Request: Queued: COc1ccc(/C=C/C(=O)Nc2ccccc2C(=O)O)cc1OC
Response: inactive

Request: Queued: Cc1c(Nc2ncccc2C(=O)O)cccc1C(F)(F)F
Response: inactive

Request: Queued: Nc1ccc(O)c(C(=O)O)c1
Response: inactive

Request: Queued: O=C(O)c1ccccc1Nc1cccc(C(F)(F)F)c1
Response: inactive

Request: Queued: CC1(C)[C@@H](O[C@H]2O[C@H](C(=O)O)[C@@H](O)[C@H](O)[C@H]2O[C@@H]2O[C@H](C(=O)O)[C@@H](O)[C@H](O)[C@H]2O)CC[C@]2(C)[C@H]3C(=O)C=C4[C@@H]5C[C@@](C)(C(=O)O)CC[C@]5(C)CC[C@@]4(C)[C@]3(C)CC[C@@H]12
Response: inactive

Provenance of the data: PubChem BioAssay (NCATS)
